# system: Urease subunit alpha/Urease subunit beta (Helicobacter pylori (strain ATCC 700392 / 26695) (Campylobacterpylori))
# Sequence (P69996 whole entry): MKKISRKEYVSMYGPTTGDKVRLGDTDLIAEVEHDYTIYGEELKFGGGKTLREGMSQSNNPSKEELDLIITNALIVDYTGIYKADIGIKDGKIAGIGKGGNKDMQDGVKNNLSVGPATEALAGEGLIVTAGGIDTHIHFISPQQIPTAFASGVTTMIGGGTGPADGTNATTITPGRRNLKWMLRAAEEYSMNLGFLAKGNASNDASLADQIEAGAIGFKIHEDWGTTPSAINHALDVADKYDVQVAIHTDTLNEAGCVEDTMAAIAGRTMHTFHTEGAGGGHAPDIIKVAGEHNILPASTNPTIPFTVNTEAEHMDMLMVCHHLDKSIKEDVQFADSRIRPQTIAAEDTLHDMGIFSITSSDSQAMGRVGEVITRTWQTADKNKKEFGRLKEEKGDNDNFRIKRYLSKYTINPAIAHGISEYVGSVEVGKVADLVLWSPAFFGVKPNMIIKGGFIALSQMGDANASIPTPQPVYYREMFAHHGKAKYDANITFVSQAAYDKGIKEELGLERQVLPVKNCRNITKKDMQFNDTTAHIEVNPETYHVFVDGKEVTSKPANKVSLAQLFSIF
# Sequence (P14916 whole entry, further chain): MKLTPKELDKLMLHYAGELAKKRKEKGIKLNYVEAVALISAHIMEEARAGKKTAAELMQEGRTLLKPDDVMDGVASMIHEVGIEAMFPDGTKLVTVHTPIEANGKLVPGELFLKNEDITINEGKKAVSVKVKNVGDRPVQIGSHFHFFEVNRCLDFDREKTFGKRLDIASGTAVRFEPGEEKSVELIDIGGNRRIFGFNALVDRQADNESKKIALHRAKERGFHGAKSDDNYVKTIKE
# procedure.summary: Mixed-type inhibition of Helicobacter pylori ATCC 43504 urease assessed as enzyme-substrate-inhibitor complex using urea as substrate preincubated for 1.5 hrs
# Type: protein-complex assay, Helicobacter pylori NCTC 11637 = CCUG 17874 = ATCC 43504
readout: pKi
// pKi is dimensionless: -log10 of concentration (M)

Return pKi (reported value) for this compound: O=C(CCOc1ccc(Cl)cc1)NO
7.27

====

# system: Urease subunit alpha/Urease subunit beta (Helicobacter pylori (strain ATCC 700392 / 26695) (Campylobacterpylori))
# procedure.summary: Inhibition of Helicobacter pylori ATCC 43504 urease assessed as reduction in ammonia production using urea as substrate preincubated for 1.5 hrs under cell free condition by indophenol method
# Assay type: protein-complex assay, Helicobacter pylori NCTC 11637 = CCUG 17874 = ATCC 43504
readout: pIC50
// pIC50 is dimensionless: -log10 of concentration (M)

sample_smiles=O=C(COc1ccc(F)cc1)NO readout=pIC50 observed_measurement=4.72

Return pIC50 (reported value) for this molecule: O=C(COc1ccc(Cl)cc1)NO
5.90

Return pIC50 (reported value) for this molecule: O=C(COc1cccc(F)c1)NO
4.57

Return pIC50 (reported value) for this molecule: COc1ccc(OCCC(=O)NO)cc1
5.08

Return pIC50 (reported value) for this molecule: O=C(COc1ccc([N+](=O)[O-])cc1)NO
4.21

Return pIC50 (reported value) for this molecule: O=C(COc1ccccc1Cl)NO
4.11

Return pIC50 (reported value) for this molecule: Cc1ccc(OCC(=O)NO)cc1
4.24

Return pIC50 (reported value) for this molecule: O=C(CCOc1ccc(Br)cc1)NO
6.07

Return pIC50 (reported value) for this molecule: O=C(COc1cc(F)cc(F)c1)NO
3.69

Return pIC50 (reported value) for this molecule: O=C(COc1cccc(Cl)c1Cl)NO
3.75

Return pIC50 (reported value) for this molecule: O=C(COc1cccc(Cl)c1)NO
4.98

Return pIC50 (reported value) for this molecule: O=C(COc1c(Cl)cccc1Cl)NO
3.45

Return pIC50 (reported value) for this molecule: O=C(COc1cc(Cl)ccc1Cl)NO
5.04

Return pIC50 (reported value) for this molecule: Cc1ccccc1OCCC(=O)NO
5.17

Return pIC50 (reported value) for this molecule: O=C(COc1cc(Cl)cc(Cl)c1)NO
5.49

Return pIC50 (reported value) for this molecule: Cc1cccc(OCC(=O)NO)c1
4.07

Return pIC50 (reported value) for this molecule: O=C(COc1ccccc1[N+](=O)[O-])NO
3.84

Return pIC50 (reported value) for this molecule: O=C(COc1ccc(Br)cc1)NO
5.27

Return pIC50 (reported value) for this molecule: O=C(COc1ccc(Cl)cc1Cl)NO
6.08

Source listed as ChEMBL document CHEMBL4229433.
